# procedure_summary: in vivo
# experimental_setup: Balb/c, mouse, po, 5 mg/kg
Below: a set of entries, each annotated with reported bioavailability at 24 h.
endpoint_label: bioavailability at 24 h (%)

> print(dat)
                                   molecule           endpoint.label  measure.unit  assay.value
1  O=C1c2cc(-c3nc(NC4CCOCC4)ncc3Cl)ccc2CN1CCN1CCOCC1  bioavailability at 24 h             %           32
2  CN(C(=O)CN1Cc2ccc(-c3nc(NC4CCOCC4)ncc3Cl)cc2C1=O)C(C)(C)C  bioavailability at 24 h             %           30
3  C[C@H](C(=O)N[C@H](CO)c1ccccc1)N1Cc2ccc(-c3nc(NC4CCOCC4)ncc3Cl)cc2C1=O  bioavailability at 24 h             %           70
4  COCCN1Cc2ccc(-c3nc(NC4CCOCC4)ncc3Cl)cc2C1=O  bioavailability at 24 h             %            1
5  O=C(CN1Cc2ccc(-c3nc(NC4CCOCC4)ncc3Cl)cc2C1=O)NCc1ccccc1  bioavailability at 24 h             %           32
6  O=C(CN1Cc2ccc(-c3nc(NC4CCOCC4)ncc3Cl)cc2C1=O)NC(CO)c1ccccc1 (single isomer, unassigned)  bioavailability at 24 h             %           41
7  Cc1cccc([C@@H](CO)NC(=O)[C@@H](C)N2Cc3ccc(-c4nc(NC5CCOCC5)ncc4Cl)cc3C2=O)c1  bioavailability at 24 h             %           59
8  CC(C)(C)NC(=O)CN1Cc2ccc(-c3nc(NC4CCOCC4)ncc3Cl)cc2C1=O  bioavailability at 24 h             %            8

====

# procedure_summary: in vivo
# experimental_setup: Balb/c, mouse, iv, 0.5 mg/kg
endpoint_label: clearance at 24 h (mL/min/kg)

> print(dat)
                                   compound     endpoint.label  assay.value
1  CC(C)(C)NC(=O)CN1Cc2ccc(-c3nc(NC4CCOCC4)ncc3Cl)cc2C1=O  clearance at 24 h           14
2  C[C@H](C(=O)N[C@H](CO)c1ccccc1)N1Cc2ccc(-c3nc(NC4CCOCC4)ncc3Cl)cc2C1=O  clearance at 24 h           23
3  COCCN1Cc2ccc(-c3nc(NC4CCOCC4)ncc3Cl)cc2C1=O  clearance at 24 h           17
4  O=C(CN1Cc2ccc(-c3nc(NC4CCOCC4)ncc3Cl)cc2C1=O)NC(CO)c1ccccc1 (single isomer, unassigned)  clearance at 24 h           11
5  Cc1cccc([C@@H](CO)NC(=O)[C@@H](C)N2Cc3ccc(-c4nc(NC5CCOCC5)ncc4Cl)cc3C2=O)c1  clearance at 24 h           13
6  CN(C(=O)CN1Cc2ccc(-c3nc(NC4CCOCC4)ncc3Cl)cc2C1=O)C(C)(C)C  clearance at 24 h          4.2
7  O=C1c2cc(-c3nc(NC4CCOCC4)ncc3Cl)ccc2CN1CCN1CCOCC1  clearance at 24 h           15
8  O=C(CN1Cc2ccc(-c3nc(NC4CCOCC4)ncc3Cl)cc2C1=O)NCc1ccccc1  clearance at 24 h          3.8
